- System: NCI-H460
- test method notes: NCI tumour cell line growth inhibition, 48 h
Activity calls are given as the source filed them. Rule as the data show it: active = GI50 up to about 1.1 µM and inactive = higher.
Answer with one of the outcomes given here: active, inactive

Query :: Lab log entry: SC1=NC2=C(CSC/C2=C\c2ccc(Cl)cc2)C(c2ccc(Cl)cc2)N1 (centres undefined) — outcome as called in the assay?
Result :: inactive

Query :: Lab log entry: O=C1NC(=O)C(C(c2ccc([N+](=O)[O-])cc2)C2C(=O)NC(=O)NC2=O)C(=O)N1 — outcome as called in the assay?
Result :: inactive

Query :: Lab log entry: CCN(C(=O)N[C@H](C(=O)N[C@@H](C)C(=O)OC)C(C)C)c1ccccc1 — outcome as called in the assay?
Result :: inactive

Query :: Lab log entry: CSc1ncnc2c1ncn2C1CC(Oc2ccc(C)cc2)C(COc2ccc(C)cc2)O1 (centres undefined) — outcome as called in the assay?
Result :: inactive

Query :: Lab log entry: COc1ccc([N+]2=NC(c3ccc([N+](=O)[O-])cc3)=NN(c3ccccc3)C2)cc1.[O-][Cl+3]([O-])([O-])[O-] — outcome as called in the assay?
Result :: inactive

Query :: Lab log entry: Cc1cccc(NC(=S)Nc2ccc([N+](=O)[O-])cc2)n1 — outcome as called in the assay?
Result :: inactive

Query :: Lab log entry: Nc1nc2c(c(-c3ccccc3Cl)n1)COC/C2=C\c1ccccc1Cl — outcome as called in the assay?
Result :: inactive

Query :: Lab log entry: COC1=CC(=O)c2c(CCNC(=O)OCc3ccccc3)n[nH]c2C1=O — outcome as called in the assay?
Result :: inactive

Query :: Lab log entry: N#Cc1c(-c2ccc(Cl)c(Cl)c2)c(-c2ccc(Cl)c(Cl)c2)nn(CC(=O)O)c1=O — outcome as called in the assay?
Result :: inactive

Query :: Lab log entry: COC(=O)C1=C(O)C(C(=O)OC)[C@]2(O)[C@H](C(=O)OC)[C@H]1C[C@@H](c1ccc(F)cc1)[C@H]2C(=O)OC (some centres undefined) — outcome as called in the assay?
Result :: inactive

Query :: Lab log entry: C=C1C2CC(OC(C)=O)C3(C)C(c4ccoc4)OC(=O)[C@@H](O)[C@]13OC1C[C@H](OC(C)=O)C(C)(C)[C@H](C(O)C(=O)OC)[C@]12C (some centres undefined) — outcome as called in the assay?
Result :: inactive

Query :: Lab log entry: O=C(/C=C/c1ccc(-c2ccccc2[N+](=O)[O-])o1)NCc1ccc(C(=O)NCCc2ccccc2)cc1 — outcome as called in the assay?
Result :: inactive

Query :: Lab log entry: Cc1ncc([N+](=O)[O-])n1CC(O)Cn1ccnc1[N+](=O)[O-] (centres undefined) — outcome as called in the assay?
Result :: inactive

Query :: Lab log entry: O=P(NC12CC3CC(CC(C3)C1)C2)(N1CC1)N1CC1 — outcome as called in the assay?
Result :: inactive

Query :: Lab log entry: Nc1nc(N)c2cc(CNc3ccc(C(=O)NC(CC(=O)O)C(=O)O)c(Cl)c3)ccc2n1 (centres undefined) — outcome as called in the assay?
Result :: active

Query :: Lab log entry: Cc1cc(NCCCCCCCCNc2cc(C)nc3cc(N(C)C)ccc23)c2ccc(N(C)C)cc2n1 — outcome as called in the assay?
Result :: inactive

Query :: Lab log entry: COc1ccc2oc(C(=O)O)c3c2c1CCC3 — outcome as called in the assay?
Result :: inactive

Query :: Lab log entry: COCNC(=NC#N)NCOC — outcome as called in the assay?
Result :: inactive

Query :: Lab log entry: CCCCCCCCNC(=O)C1=C(C)NC(C)=C(C(=O)NCCCCCCCC)C1 — outcome as called in the assay?
Result :: inactive
